Where a name gives a salt, the structure may show the parent alone.
measurement kind: melting point (°C)

(P) CN(CCO)CCOc1ccc(-n2ccnc(NCCOc3ccccc3)c2=O)cc1
(Q) COc1cc(-n2ccnc(NCCOc3ccccc3)c2=O)ccc1OCCN1CCCC1 (as salt: HCl)
Ask: Would you mind telling me which has the lower recorded melting point between P and Q ? Output the label that corresponds to your choice.
Result: P

----------
molecular target: human MCH-1 receptor (Homo sapiens, UniProt Q99705); construct: expressed in transfected cells; experiment: Ca2+ mobilization experiment for the MCH-1 receptor (FLIPR), inhibition of MCH-induced Ca2+ mobilization; assay type: cell-based; settings: CHO cells stably expressing human MCH-1 receptor, inhibition of MCH-induced Ca2+ response, read-out: MCH-1 pIC50 (converted)
Sequence (Q99705 whole entry): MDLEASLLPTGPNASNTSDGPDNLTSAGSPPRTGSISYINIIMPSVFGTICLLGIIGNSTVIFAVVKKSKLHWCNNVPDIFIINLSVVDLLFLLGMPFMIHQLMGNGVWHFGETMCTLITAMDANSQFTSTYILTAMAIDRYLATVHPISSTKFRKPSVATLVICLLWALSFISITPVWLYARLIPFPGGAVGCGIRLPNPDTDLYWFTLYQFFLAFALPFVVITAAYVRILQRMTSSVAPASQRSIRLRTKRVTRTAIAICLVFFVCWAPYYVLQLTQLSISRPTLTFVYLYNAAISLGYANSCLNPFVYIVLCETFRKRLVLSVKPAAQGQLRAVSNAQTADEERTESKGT
measurement kind: IC50 (nM)

Solved entries (count: 5):
1) COc1cc(-n2ccnc(NCCOc3ccccc3)c2=O)ccc1OCCCN1CCC(O)C1 (stereo not shown) [1-76]	126
2) CCCC(=O)N(C)CCOc1ccc(-n2ccnc(NCCOc3ccccc3)c2=O)cc1 [1-31]	316
3) COc1cc(-n2ccnc(NCCc3ccccc3)c2=O)ccc1OCCN1CCC(F)CC1 [3-50]	20
4) O=c1c(NCCc2ccccc2)nccn1-c1ccc(N2CCNCC2)c(Cl)c1 [3-77]	100
5) CN(CCOc1ccc(-n2ccnc(NCCOc3ccccc3)c2=O)cc1)C1CCCCC1 [1-25]	631

(I) COc1cc(-n2ccnc(NCCc3ccccc3)c2=O)ccc1N1CCC(N)C1 (stereo not shown) [3-08]
(II) COCC(=O)NCCOc1ccc(-n2ccnc(NCCc3ccccc3)c2=O)cc1OC [3-43]
(III) COc1cc(-n2ccnc(NCCc3ccccc3)c2=O)ccc1OC[C@H]1CCCN1 [3-34]
(IV) CC(C)N(CCOc1ccc(-n2ccnc(NCCOc3ccccc3)c2=O)cc1)C(C)C [1-28]
Ask: Order the 4 compounds from highest to lowest IC50. Give the labels in the order specified.
Result: IV, II, I, III
(IV: 501 nM, II: 200 nM, I: 39.8 nM, III: 25.1 nM)

(1) COc1cc(-n2ccnc(NCCc3ccccc3)c2=O)ccc1OCCCN(C)C1CC1 [3-68]
(2) COc1cc(-n2ccnc(NCCc3ccc(C(F)(F)F)cc3F)c2=O)ccc1OCCN1CCCC1 [2-43]
(3) COc1cc(-n2ccnc(NCCOc3ccccc3)c2=O)ccc1N1CCC(O)C1 (stereo not shown) [1-08]
(4) COc1cc(-n2ccnc(NCCOc3ccccc3)c2=O)ccc1OCCN1CCOCC1 [1-74]
Ask: I would appreciate it if you could sort these 4 compounds by IC50, starting from the smallest number. Reply: labels, ordered per the request.
Result: 1, 4, 3, 2
(1: 39.8 nM, 4: 79.4 nM, 3: 398 nM, 2: 794 nM)

(A) COc1cc(-n2ccnc(NCCOc3ccccc3)c2=O)ccc1OCCN1CCCC(CO)C1 (stereo not shown) [1-72]
(B) COC(=O)c1cc(-n2ccnc(NCCOc3ccccc3)c2=O)ccc1OCCN1CCCC1 [1-54]
(C) CC(=O)N(C)C1CCN(c2ccc(-n3ccnc(NCCOc4ccccc4)c3=O)cn2)C1 (stereo not shown) [3-88]
(D) COc1cc(-n2ccnc(N3CCC(c4cccc(C(F)(F)F)c4)C3)c2=O)ccc1OCCN1CCCC1 (stereo not shown) [4-05]
(E) COc1cc(-n2ccnc(NCCOc3ccccc3)c2=O)ccc1N1CCC(NC(C)=O)CC1 [1-14]
Ask: List the 5 entries from lowest IC50 to highest IC50 value. Form entry: ranked labels (order as requested).
Result: A, B, E, C, D

(A) COc1cc(-n2ccnc(NCCc3ccccc3)c2=O)ccc1OCCN1CCOCC1 [3-59]
(B) COc1cc(-n2ccnc(CCCOc3ccccc3)c2=O)ccc1OCCN1CCCC1 [2-08]
(C) COc1ccc(CCNc2nccn(-c3ccc(OCCN4CCCC4)c(OC)c3)c2=O)cc1Cl [2-42]
Ask: Falling order of IC50, please. To answer, write out the labels according to the requested order.
Result: C, B, A
(C: 251 nM, B: 158 nM, A: 50.1 nM)

Value source: patent US8329704B2
